Reported IC50 on MALT1 (Homo sapiens) for assorted molecules, compiled from publications.

Molecule: CO[C@@H](C)c1c(NC(=O)Nc2cnc(-n3nccn3)c(C(F)(F)F)c2)cnc(C)c1Cl
Reading Qualifier: =
IC50 / nM: 30
--
Molecule: CNC(=O)c1ccc(NC(=O)c2snc(-c3ccccc3)c2C2CC2)cc1Cl
Reading Qualifier: ≤
IC50 / nM: 400
--
Molecule: Cc1nc(-n2ncc(C(=O)Nc3cnc(-n4nccn4)c(Cl)c3)c2C(F)(F)F)ccc1F
Reading Qualifier: =
IC50 / nM: 741
--
Molecule: COc1cncc(NC(=O)Nc2cnc(-n3nccn3)c(C(F)(F)F)c2)c1[C@H](C)OC
Reading Qualifier: =
IC50 / nM: 1450
--
Molecule: N#Cc1cc(NC(=O)c2cnn(-c3ccccc3C3CC3)c2C(F)(F)F)cnc1-n1nccn1
Reading Qualifier: =
IC50 / nM: 170
--
Molecule: Cc1cnc([C@H]2COCCO2)cc1-n1ncc(C(=O)Nc2cnc(-n3nccn3)c(Cl)c2)c1C(F)(F)F (single isomer, unassigned)
Reading Qualifier: =
IC50 / nM: 1910
--
Molecule: Cc1cc2ccccc2c(-n2ncc(C(=O)Nc3cnc(-n4nccn4)c(Cl)c3)c2C(F)(F)F)n1
Reading Qualifier: =
IC50 / nM: 65

---

pIC50: −log10 of the molar value.
Study the reported pIC50 values for MALT1 (Homo sapiens, UniProt Q9UDY8) given below; they originate from different publications.

Line Notation: Cc1cc(NC(=O)c2snc([C@@H]3CCOC3)c2C2CC2)ccn1
Reading Qualifier: <
pIC50: 5.60
--
Line Notation: CO[C@H](C)c1c(NC(=O)Nc2cnc(OC(F)F)c(Cl)c2)cnc(C)c1Cl
Reading Qualifier: =
pIC50: 5.87
--
Line Notation: Cc1c(-n2ncc(C(=O)Nc3cnc(-n4nccn4)c(Cl)c3)c2C(F)(F)F)ccnc1N
Reading Qualifier: =
pIC50: 6.76
--
Line Notation: O=C(Nc1cnc(-n2nccn2)c(Cl)c1)c1cnn(-c2ccc(F)c3cccnc23)c1C(F)(F)F
Reading Qualifier: =
pIC50: 6.71
--
Line Notation: Cc1nc2cccc(-n3ncc(C(=O)Nc4cnc(-n5nccn5)c(C#N)c4)c3C(F)(F)F)c2o1
Reading Qualifier: =
pIC50: 6.84
--
Line Notation: Cn1nc(-c2cccc3c(=O)[nH]ccc23)c(C(F)(F)F)c1C(=O)Nc1cnc(-n2nccn2)c(Cl)c1
Reading Qualifier: >
pIC50: 6.30

---

Field: IC50. System: MALT1 (Homo sapiens, UniProt Q9UDY8). Provenance: assorted publications.
Sequence (Q9UDY8 whole entry): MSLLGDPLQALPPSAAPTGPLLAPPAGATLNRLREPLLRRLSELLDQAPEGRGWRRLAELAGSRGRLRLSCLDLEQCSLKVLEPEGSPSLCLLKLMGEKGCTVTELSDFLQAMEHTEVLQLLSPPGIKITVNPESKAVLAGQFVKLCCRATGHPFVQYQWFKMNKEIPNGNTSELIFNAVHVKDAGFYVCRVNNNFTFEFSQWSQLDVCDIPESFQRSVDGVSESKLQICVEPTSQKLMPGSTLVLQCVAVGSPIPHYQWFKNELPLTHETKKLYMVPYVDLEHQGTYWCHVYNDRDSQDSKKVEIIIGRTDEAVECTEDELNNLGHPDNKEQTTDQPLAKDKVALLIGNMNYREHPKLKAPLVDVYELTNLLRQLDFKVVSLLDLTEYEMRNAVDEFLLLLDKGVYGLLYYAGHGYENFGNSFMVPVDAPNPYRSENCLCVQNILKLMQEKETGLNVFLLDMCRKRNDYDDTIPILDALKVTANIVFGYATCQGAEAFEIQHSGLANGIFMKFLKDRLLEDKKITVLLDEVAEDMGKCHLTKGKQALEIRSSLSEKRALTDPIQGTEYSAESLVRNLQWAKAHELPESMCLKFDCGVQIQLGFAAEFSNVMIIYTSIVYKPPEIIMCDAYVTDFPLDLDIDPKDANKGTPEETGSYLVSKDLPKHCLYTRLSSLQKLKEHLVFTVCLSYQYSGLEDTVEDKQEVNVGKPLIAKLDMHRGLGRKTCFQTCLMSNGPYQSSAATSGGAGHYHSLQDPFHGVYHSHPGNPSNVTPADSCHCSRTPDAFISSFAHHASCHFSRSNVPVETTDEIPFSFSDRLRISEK
Binned IC50; ranges: LOW: < 100 nM; MEDIUM: ≥ 100 nM and < 300 nM; HIGH: ≥ 300 nM

Compound: Cc1cnc2cccc(-n3ncc(C(=O)Nc4cnc(-n5nccn5)c(Cl)c4)c3C(F)(F)F)c2c1
Group: LOW

Compound: N#Cc1cc(NC(=O)c2snc(-c3ccccc3)c2C2(O)COC2)cnc1-n1nccn1
Group: HIGH

Compound: N#Cc1cc(NC(=O)c2cnn(-c3ccnc4cn[nH]c34)c2C(F)(F)F)cnc1-n1nccn1
Group: MEDIUM

Compound: COC(C)c1c(Cl)cncc1NC(=O)Nc1cnc(-n2nccn2)c(Cl)c1 (stereo not shown)
Group: MEDIUM

Compound: Cc1nc(-c2ccn(C)n2)c(Cl)cc1NC(=O)c1cnn(-c2cccc3c(=O)[nH]ccc23)c1C(F)(F)F
Group: LOW

Compound: O=C(Nc1cnc(-n2ccnn2)c(C(F)(F)F)c1)c1cnn(-c2cccc3ncccc23)c1C(F)(F)F
Group: MEDIUM

Compound: Cc1cc(F)c(N)nc1-n1ncc(C(=O)Nc2cc(Cl)c(-n3nccn3)nc2C)c1C(F)(F)F
Group: HIGH

Compound: COC(=O)c1cnn(-c2ncc(NC(=O)c3cnn(-c4cccc5ncccc45)c3C(F)(F)F)cc2Cl)n1
Group: LOW

Compound: Cc1cc(NC(=O)c2cnn(-c3cccc4c(=O)[nH]ccc34)c2C(F)(F)F)c(C)nc1-n1nccn1
Group: MEDIUM

Compound: Cc1ccc(-n2ncc(C(=O)Nc3cc(C#N)c(-n4nccn4)nc3C)c2C(F)(F)F)nc1N
Group: HIGH

Compound: O=C(Nc1cnc([C@H]2CCCO2)c(Cl)c1)c1cnn(-c2ccc(Cl)c3nccn23)c1C(F)(F)F (single isomer, unassigned)
Group: HIGH

---

Here we gather IC50 data for MALT1 (Homo sapiens, UniProt Q9UDY8) reported by several publications.

Compound: N#Cc1cc(NC(=O)c2cnn(-c3cncc4ncccc34)c2C(F)(F)F)cnc1-n1nccn1
Reading Qualifier: =
IC50 [nM]: 28
--
Compound: CN(C)c1nc2cccc(-c3nn(C)c(C(=O)Nc4ccnc(C(F)(F)F)c4)c3C(F)(F)F)c2s1
Reading Qualifier: >
IC50 [nM]: 10000
--
Compound: CC(F)(F)c1ncc(-n2ncc(C(=O)Nc3cnc(-n4nccn4)c(Cl)c3)c2C(F)(F)F)c2ccccc12
Reading Qualifier: =
IC50 [nM]: 178
--
Compound: Cn1cc2c(-c3nsc(C(=O)Nc4cc(C(F)(F)F)ccn4)c3C3CC3)cccc2n1
Reading Qualifier: >
IC50 [nM]: 2500
--
Compound: O=C(Nc1cnc(-n2nccn2)c(Cl)c1)c1cnn(-c2c(F)cccc2Cl)c1C(F)(F)F
Reading Qualifier: =
IC50 [nM]: 575
--
Compound: O=C(Nc1ccnc(C(F)(F)F)c1)c1snc(-c2cccc(F)c2)c1C1CC1
Reading Qualifier: ≤
IC50 [nM]: 400
--
Compound: Cc1cn(C)nc1-c1nsc(C(=O)Nc2cnc(-n3nccn3)c(C#N)c2)c1C1CC1
Reading Qualifier: ≤
IC50 [nM]: 400
--
Compound: O=C(Nc1cnc(-n2nccn2)c(Cl)c1)c1cnn(-c2cnc(C3COCCO3)c3ccccc23)c1C(F)(F)F (centres unmarked)
Reading Qualifier: =
IC50 [nM]: 110

---

Target or system MALT1 (Homo sapiens, UniProt Q9UDY8); metric pIC50; compiled from varied reports.
pIC50: −log10 of the molar value.

Compound: O=C(Nc1cnc(-n2nccn2)c(Cl)c1)c1cnn(-c2cnc(N3CC[C@@H](O)C3)c3sccc23)c1C(F)(F)F
Reading Qualifier: =
pIC50: 7.01
//
Compound: Cn1nc(-c2c(Cl)ccc3c2OCO3)c(C(F)(F)F)c1C(=O)Nc1ccnc(C(F)(F)F)c1
Reading Qualifier: >
pIC50: 6.30
//
Compound: CN(C(=O)c1snc(-c2ccccc2)c1C(F)(F)F)c1cnc(-n2nccn2)c(Cl)c1
Reading Qualifier: ≥
pIC50: 6.40
//
Compound: Cc1cc2nccc(-n3ncc(C(=O)Nc4cnc(-n5nccn5)c(C#N)c4)c3C(F)(F)F)c2o1
Reading Qualifier: =
pIC50: 6.67
//
Compound: Cc1ccc(F)cc1-n1ncc(C(=O)Nc2cnc(-n3nccn3)c(Cl)c2)c1C(F)(F)F
Reading Qualifier: =
pIC50: 6.50
//
Compound: O=C(Nc1cnc(C(=O)N2CC(O)C2)c(Cl)c1)c1snc(-c2cccc3ncsc23)c1C1CC1
Reading Qualifier: ≥
pIC50: 6.40
//
Compound: Cc1nc(-n2nccn2)c(C#N)cc1NC(=O)c1cnn(-c2ccc(Cl)c(N)n2)c1C(F)(F)F
Reading Qualifier: =
pIC50: 6.56
//
Compound: N#Cc1cc(NC(=O)c2snc(-c3ncccc3Cl)c2C(F)(F)F)cnc1-n1nccn1
Reading Qualifier: ≥
pIC50: 6.40
//
Compound: O=C(Nc1cnc(-n2nccn2)c(Cl)c1)c1cnn(-c2cnc(C3CC3)c3sccc23)c1C(F)(F)F
Reading Qualifier: =
pIC50: 6.77
//
Compound: N#Cc1ccc(-n2ncc(C(=O)Nc3cnc([C@H]4CCCO4)c(Cl)c3)c2C(F)(F)F)c2ccnn12 (single isomer, unassigned)
Reading Qualifier: =
pIC50: 6.60
//
Compound: O=C(Nc1cc(Cl)c(-n2nccn2)cc1F)c1cnn(-c2cccc3c(=O)[nH]ccc23)c1C(F)(F)F
Reading Qualifier: =
pIC50: 7.16
//
Compound: O=C(Nc1cnc(-n2nccn2)c(Cl)c1)c1cnn(-c2ncc(F)cc2Cl)c1C(F)(F)F
Reading Qualifier: =
pIC50: 6.27
//
Compound: N#Cc1ccc2c(-n3ncc(C(=O)Nc4cnc(-n5nccn5)c(Cl)c4)c3C(F)(F)F)cccc2n1
Reading Qualifier: =
pIC50: 6.54
//
Compound: Cn1nc(-c2cccc3ncsc23)c(C(F)(F)F)c1C(=O)Nc1cnc(-n2nccn2)c(C(F)F)c1
Reading Qualifier: >
pIC50: 6.30
//
Compound: O=C(Nc1cnc(-n2nnc3cccnc32)c(Cl)c1)c1cnn(-c2cccc3ncccc23)c1C(F)(F)F
Reading Qualifier: =
pIC50: 6.61
//
Compound: COc1c(C)ncc(NC(=O)Nc2cnc(-n3nccn3)c(Cl)c2)c1[C@@H](C)OC
Reading Qualifier: =
pIC50: 6.27
//
Compound: O=C(Nc1ccnc(C(F)(F)F)c1)c1snc(-c2c(Cl)cncc2Cl)c1C1CC1
Reading Qualifier: ≥
pIC50: 6.40
//
Compound: O=C(Nc1cnc(-n2nccn2)c(Cl)c1)c1snc(-c2cccc3c(=O)[nH]ccc23)c1C(F)(F)F
Reading Qualifier: ≥
pIC50: 6.40
//
Compound: CNc1ncc(-n2ncc(C(=O)Nc3cnc(-n4nccn4)c(Cl)c3)c2C(F)(F)F)c2cccc(F)c12
Reading Qualifier: =
pIC50: 6.93
//
Compound: N#Cc1cc(NC(=O)c2cnn(-c3ccnc4ccsc34)c2C(F)(F)F)cnc1-n1nccn1
Reading Qualifier: =
pIC50: 7.80
//
Compound: Cn1cc2c(-c3nsc(C(=O)Nc4ccnc(C(F)(F)F)c4)c3C3CC3)cccc2n1
Reading Qualifier: ≥
pIC50: 6.40
//
Compound: Cc1c(F)cccc1-n1ncc(C(=O)Nc2cnc(-n3nccn3)c(Cl)c2)c1C(F)(F)F
Reading Qualifier: =
pIC50: 6.84
//
Compound: O=C(Nc1cnc(-n2nccn2)c(Cl)c1)c1cnn(-c2cnc([C@@H]3CCCO3)c3ccccc23)c1C(F)(F)F (single isomer, unassigned)
Reading Qualifier: =
pIC50: 5.75
//
Compound: Cc1cc(F)ccc1-n1ncc(C(=O)Nc2cnc(-n3nccn3)c(Cl)c2)c1C(F)(F)F
Reading Qualifier: =
pIC50: 6.93
//
Compound: Cc1nc(-n2cccn2)c(Cl)cc1NC(=O)c1cnn(-c2cnc(N)c3ccccc23)c1C(F)(F)F
Reading Qualifier: =
pIC50: 6.67
